FYI, the data here is from ChEMBL document CHEMBL4602640.

- testSystem: Isocitrate dehydrogenase [NADP] cytoplasmic (Homo sapiens, UniProt O75874, R132C)
- Sequence (O75874 2-414 R132C limits assumed): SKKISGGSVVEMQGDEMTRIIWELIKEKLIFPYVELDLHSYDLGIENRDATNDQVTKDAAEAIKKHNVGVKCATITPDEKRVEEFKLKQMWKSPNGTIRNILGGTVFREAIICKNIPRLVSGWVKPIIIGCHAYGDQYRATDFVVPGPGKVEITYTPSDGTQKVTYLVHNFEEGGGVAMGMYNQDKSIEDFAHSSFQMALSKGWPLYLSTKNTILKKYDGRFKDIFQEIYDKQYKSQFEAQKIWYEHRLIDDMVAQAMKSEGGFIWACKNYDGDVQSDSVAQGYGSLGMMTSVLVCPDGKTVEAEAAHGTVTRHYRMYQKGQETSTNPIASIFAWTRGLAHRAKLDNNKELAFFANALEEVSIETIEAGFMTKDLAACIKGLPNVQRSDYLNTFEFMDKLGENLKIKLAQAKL
- procedureText: Inhibition of IDH1 R132C mutant (unknown origin) by enzymatic assay
quantityMeasured: pIC50
Reminder that pIC50 is minus the log10 of a molar concentration.

Input: Which pIC50 is listed for C=CC(C)(C)c1cc(/C=C/C(=O)c2ccc(O)cc2)c(OC)cc1O ?
Output: 5.29

* * *

- testSystem: Isocitrate dehydrogenase [NADP] cytoplasmic (Homo sapiens, UniProt O75874, R132C)
- procedureText: Binding affinity to IDH1 R132C mutant (unknown origin) by surface plasmon resonance assay
quantityMeasured: pKd
Reminder that pKd is minus the log10 of a molar concentration.

Input: Which pKd is listed for C=CC(C)(C)c1cc(/C=C/C(=O)c2ccc(O)cc2)c(OC)cc1O [LICOAGROCHACONE A] ?
Output: 5.55

* * *

- testSystem: Isocitrate dehydrogenase [NADP] cytoplasmic (Homo sapiens, UniProt O75874, R132H)
- Sequence (O75874 2-414 R132H limits assumed): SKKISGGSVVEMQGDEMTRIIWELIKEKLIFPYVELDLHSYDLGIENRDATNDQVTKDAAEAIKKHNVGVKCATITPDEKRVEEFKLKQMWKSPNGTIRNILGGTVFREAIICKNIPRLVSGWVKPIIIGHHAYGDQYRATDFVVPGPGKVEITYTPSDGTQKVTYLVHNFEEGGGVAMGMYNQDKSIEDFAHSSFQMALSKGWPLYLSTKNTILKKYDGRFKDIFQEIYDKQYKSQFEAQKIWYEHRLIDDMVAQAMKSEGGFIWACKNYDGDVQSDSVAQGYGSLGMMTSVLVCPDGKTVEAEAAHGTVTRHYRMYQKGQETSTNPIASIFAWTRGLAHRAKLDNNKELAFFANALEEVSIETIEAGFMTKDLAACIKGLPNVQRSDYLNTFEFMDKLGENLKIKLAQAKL
- procedureText: Binding affinity to IDH1 R132H mutant (unknown origin) by surface plasmon resonance assay
quantityMeasured: pKd
Reminder that pKd is minus the log10 of a molar concentration.

Input: Which pKd is listed for C=CC(C)(C)c1cc(/C=C/C(=O)c2ccc(O)cc2)c(OC)cc1O ?
Output: 4.89
